# target or system: T1, recombinant human regenerating islet-derived protein 1α (REG1A) (human, UniProt P05451 23-166, limits assumed)
# T1 construct: also called recombinant human REG1A; recombinant REG1A
# T1 sequence (looked up): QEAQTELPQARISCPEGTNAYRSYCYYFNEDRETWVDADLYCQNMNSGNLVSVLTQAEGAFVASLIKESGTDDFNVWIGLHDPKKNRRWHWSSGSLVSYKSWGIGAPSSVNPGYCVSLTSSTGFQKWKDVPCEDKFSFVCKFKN
# measurement notes: sandwich ELISA; capture 21B11D2; REG1A 100.00 ng/mL
assay endpoint: OD value (OD)
Respond with the bare value in OD.

Record antibody 4H8F1 (antibody, V domains shown, Mouse monoclonal from hybridoma, stated mouse IgG1/Kappa; also called 4H8F1-biotin; Antibody 1) VH: QVTLKESGPGILQPSQTLSLTCSFSGFSLSTSGMSVGWIRQPSGKGLEWLAHIWWNDDKFYNPALKSRLTISKDTSKNQIFLKIASVVTADSATYYCARIEEGWFAYWGQGTLVTVST VL: SIVMTQTPKFLLVSVGDRVTITCKASQTMSNDVAWYQQKPGQSPKLLIYYASNRYTGVPDRFTGSGYGTDFTFTISTVQAEDLAVYFCQQDYSSPLTFGAGTKLELKR . Reported OD value: 0.084

Record antibody 21B11D2 (antibody, mouse IgG2b, kappa, V domains shown, Mouse monoclonal from hybridoma, stated mouse IgG1/Kappa; Used unlabelled as capture and biotin-labelled as detection antibody; also called 21B11D2-biotin) VH: QAQLQQSGAELVRPGASVTLSCKASGYIFTDYEMHWVKQTPVHGLEWIGAIDPETGGTAYNQKFKGKARLTADKSSSTAYMELRSLTSEDSAVYYCTIYYTNHFDYWGQGTTLTVSS VL: DVVMTQTPLSLPVSLGDQASISCRSSQSLVYSNGDTYLYWYLQKPGQSPKLLIYKVSNRFSGVPDRFSGSGSGTDFTLKISRVEAEDLGVYFCSQSTHVPLTFGAGTKLELKR . Reported OD value: 0.068

Record antibody 12F12A10 (antibody, V domains shown, Mouse monoclonal from hybridoma, stated mouse IgG1/Kappa; also called 12F12A10-biotin; Antibody 2) VH: QVQLQQSATELARPGASVKMSCKASGYTFTSYMMHWVKQRPGQGLEWIGYINPSSGYTDYNQKFKDKTTLTADKSSSTAYMQLSSLTSEDSAVYYCARYRYPHYFDYWGQGTTLTVSS VL: QIVLTQSPAIMSASPGEKVTMTCSASSSVSYIHWYQQKSGTSPKRWIYDTSKLASGVPARFSGSGSGTSYSLTISSMEAEDAAIYYCQQWSSNPPTFGAGTKLELKR . Reported OD value: 4.65

Record antibody 11D11B11 (antibody, mouse IgG2a, kappa, V domains shown, Mouse monoclonal from hybridoma, stated mouse IgG1/Kappa; Used unlabelled as capture and biotin-labelled as detection antibody; also called 11D11B11-biotin) VH: DVKLVESGGGLVKPGGSLKLSCAASGFTFSSFSMSWFRQTPDKRLEWVATISSGGSSTYYPDSVKGRFTISRDNAKNTLYLQMTSLKSEDTAIFYCRGGYYGNYDPLDYWGQGTSVTVSA VL: DIVMIQSQKFMSTSVGDRVSITCTASHNVDSNVAWYQQKPGQSPQALIYSASYRYSGVPDRFTGSGSGTDFTLTINNVQSEDLAEYFCQQYNSYPLTFGGGTRLEIKR . Reported OD value: 0.075
